Measured Target: T1, Human CD98 ECD with C-terminal His-tag (human, UniProt P08195 105-529)
T1 construct: also called huCD98 ECD; recombinant human CD98 extracellular domain
T1 sequence: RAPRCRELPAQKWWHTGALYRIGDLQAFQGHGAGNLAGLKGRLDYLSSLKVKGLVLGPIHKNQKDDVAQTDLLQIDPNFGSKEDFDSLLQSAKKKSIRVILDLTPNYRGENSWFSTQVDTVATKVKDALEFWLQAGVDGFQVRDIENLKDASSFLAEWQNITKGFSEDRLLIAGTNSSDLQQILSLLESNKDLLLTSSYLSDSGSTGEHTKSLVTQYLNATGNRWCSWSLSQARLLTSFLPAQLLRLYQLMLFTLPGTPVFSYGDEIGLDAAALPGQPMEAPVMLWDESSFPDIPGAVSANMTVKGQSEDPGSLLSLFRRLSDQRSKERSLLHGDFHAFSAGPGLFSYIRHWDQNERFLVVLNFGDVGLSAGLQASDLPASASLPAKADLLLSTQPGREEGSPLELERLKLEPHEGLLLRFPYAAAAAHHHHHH
Measurement Notes: SPR Biacore, anti-Fc capture of mAb, CD98 ECD analyte
Recorded kon, one value per entry.
Give a bare numeral; the unit M⁻¹ s⁻¹ is implied.

Take a look at these entries with their results.
Recombinant anti-CD98 chimeric antibody chAb7 (antibody, human IgG1, V domains shown) VH: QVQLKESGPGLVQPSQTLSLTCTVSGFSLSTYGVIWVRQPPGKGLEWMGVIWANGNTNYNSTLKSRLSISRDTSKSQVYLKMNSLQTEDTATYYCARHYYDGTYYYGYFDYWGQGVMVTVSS VL: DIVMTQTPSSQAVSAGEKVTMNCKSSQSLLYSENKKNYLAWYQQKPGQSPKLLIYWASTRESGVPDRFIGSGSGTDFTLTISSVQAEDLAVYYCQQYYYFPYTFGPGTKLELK
140000
Recombinant anti-CD98 chimeric antibody chAb13 (antibody, human IgG1, V domains shown, also called chAbl 3) VH: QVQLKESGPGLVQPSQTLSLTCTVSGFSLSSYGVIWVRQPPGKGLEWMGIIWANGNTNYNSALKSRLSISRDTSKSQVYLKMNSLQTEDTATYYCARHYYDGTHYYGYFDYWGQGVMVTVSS VL: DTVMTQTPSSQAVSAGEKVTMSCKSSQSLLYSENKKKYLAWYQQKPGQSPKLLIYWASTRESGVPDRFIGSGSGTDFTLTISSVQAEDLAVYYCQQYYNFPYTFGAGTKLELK
130000
Recombinant anti-CD98 chimeric antibody chAb5 (antibody, human IgG1, V domains shown) VH: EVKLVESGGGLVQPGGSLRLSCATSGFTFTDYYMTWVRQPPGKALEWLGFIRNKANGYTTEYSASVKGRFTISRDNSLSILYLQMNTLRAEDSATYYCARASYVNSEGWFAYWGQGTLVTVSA VL: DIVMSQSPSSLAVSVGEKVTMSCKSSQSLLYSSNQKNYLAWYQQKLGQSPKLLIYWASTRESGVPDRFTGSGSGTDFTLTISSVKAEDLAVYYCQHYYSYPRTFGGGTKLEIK
40000
Recombinant anti-CD98 chimeric antibody chAb15 (antibody, human IgG1, V domains shown) VH: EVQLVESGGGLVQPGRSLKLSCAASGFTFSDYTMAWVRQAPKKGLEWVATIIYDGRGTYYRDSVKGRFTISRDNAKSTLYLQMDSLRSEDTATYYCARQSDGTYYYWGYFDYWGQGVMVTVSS VL: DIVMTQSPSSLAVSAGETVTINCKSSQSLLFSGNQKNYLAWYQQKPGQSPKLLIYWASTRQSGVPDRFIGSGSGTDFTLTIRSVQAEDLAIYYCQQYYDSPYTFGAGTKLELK
43000
Recombinant anti-CD98 chimeric antibody chAb9 (antibody, human IgG1, V domains shown) VH: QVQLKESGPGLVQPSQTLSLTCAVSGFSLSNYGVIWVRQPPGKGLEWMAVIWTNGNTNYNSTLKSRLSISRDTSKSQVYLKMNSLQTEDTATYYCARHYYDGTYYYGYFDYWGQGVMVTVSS VL: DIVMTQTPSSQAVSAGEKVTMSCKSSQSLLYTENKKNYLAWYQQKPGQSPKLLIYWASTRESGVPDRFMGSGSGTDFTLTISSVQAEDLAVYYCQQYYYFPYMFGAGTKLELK
73000

Name the recorded kon of the item Recombinant anti-CD98 chimeric antibody chAb1 (antibody, human IgG1, V domains shown) VH: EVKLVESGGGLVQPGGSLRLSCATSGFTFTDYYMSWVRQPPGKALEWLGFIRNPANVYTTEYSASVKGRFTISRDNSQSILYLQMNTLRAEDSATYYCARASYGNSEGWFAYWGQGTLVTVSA VL: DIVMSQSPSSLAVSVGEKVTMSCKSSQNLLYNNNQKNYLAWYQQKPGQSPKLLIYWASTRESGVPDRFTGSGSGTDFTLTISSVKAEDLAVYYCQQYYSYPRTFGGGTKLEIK in your answer.
68000

Name the recorded kon of the item Recombinant anti-CD98 chimeric antibody chAb11 (antibody, human IgG1, V domains shown) VH: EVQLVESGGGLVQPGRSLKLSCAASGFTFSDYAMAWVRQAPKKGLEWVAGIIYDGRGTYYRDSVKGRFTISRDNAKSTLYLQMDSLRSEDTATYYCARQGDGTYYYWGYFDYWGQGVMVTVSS VL: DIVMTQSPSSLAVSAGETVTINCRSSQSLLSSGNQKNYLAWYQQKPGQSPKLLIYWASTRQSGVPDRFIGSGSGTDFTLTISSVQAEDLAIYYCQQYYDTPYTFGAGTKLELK in your answer.
45000

Name the recorded kon of the item Recombinant anti-CD98 chimeric antibody chAb14 (antibody, human IgG1, V domains shown) VH: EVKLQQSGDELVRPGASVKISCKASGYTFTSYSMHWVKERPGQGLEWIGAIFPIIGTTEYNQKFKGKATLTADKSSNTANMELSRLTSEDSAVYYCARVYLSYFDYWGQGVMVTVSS VL: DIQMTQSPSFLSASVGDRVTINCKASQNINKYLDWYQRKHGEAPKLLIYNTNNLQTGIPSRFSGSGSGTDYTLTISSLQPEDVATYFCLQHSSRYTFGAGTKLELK in your answer.
22000

Reference source for all entries: patent US20200147235A1
